All values here come from patent US20120045438A1.

Target: T1, human IL-13 R130Q variant (R110Q of the mature chain) (human, UniProt P35225 35-146, Biotinylated on amines (NHS-LC-biotin, 4:1) in ELISA, panning and competition assays. The letters are unchanged.)
T1 construct: R130Q counts from Met 1 of the signal peptide, R110Q on the mature chain; Bought from Peprotech; also called IL-13 R110Q; b-R130Q
T1 sequence (P35225 35-146 limits assumed, stated change not applied): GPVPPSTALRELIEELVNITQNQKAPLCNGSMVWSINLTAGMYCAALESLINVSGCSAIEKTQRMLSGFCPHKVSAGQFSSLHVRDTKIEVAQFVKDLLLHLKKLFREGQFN
Assay: SPR (Biacore), mAb made in CHO
EXPERIMENTAL_ENDPOINT: Kd
Give your result as the value with the unit written after it.

A selection of reference data follows.
mAb Lc-2B03 with Hc2 M34Q, M100L (antibody, V domains shown, full-length mAb, made in HEK293 and CHO) VH: QVTLKESGPVLVKPTETLTLTCTVSGFSLSTYGQGVGWIRQPPGKALEWLAHIWWDDVKRYNPALKSRLTISKDTSKSQVVLTMTNMDPVDTATYYCARLGSDYDVWFDYWGQGTLVTVSS VL: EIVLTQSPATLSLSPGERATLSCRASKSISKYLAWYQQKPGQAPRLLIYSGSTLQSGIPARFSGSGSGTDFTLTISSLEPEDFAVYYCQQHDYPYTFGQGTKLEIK; 0.0251 nM
mAb Lc-2B03 with Hc2 T31S, M34S, M100L (antibody, V domains shown, full-length mAb, made in HEK293 and CHO) VH: QVTLKESGPVLVKPTETLTLTCTVSGFSLSSYGSGVGWIRQPPGKALEWLAHIWWDDVKRYNPALKSRLTISKDTSKSQVVLTMTNMDPVDTATYYCARLGSDYDVWFDYWGQGTLVTVSS VL: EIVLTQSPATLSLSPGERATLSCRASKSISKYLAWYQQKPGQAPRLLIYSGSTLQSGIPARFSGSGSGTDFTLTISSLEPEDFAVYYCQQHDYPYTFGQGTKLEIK; 0.0101 nM

Switching to the query record.
input: Look at this binder and give its reported Kd. mAb Lc-2B03 with Hc2 M34V, M100L (antibody, V domains shown, full-length mAb, made in HEK293 and CHO) VH: QVTLKESGPVLVKPTETLTLTCTVSGFSLSTYGVGVGWIRQPPGKALEWLAHIWWDDVKRYNPALKSRLTISKDTSKSQVVLTMTNMDPVDTATYYCARLGSDYDVWFDYWGQGTLVTVSS VL: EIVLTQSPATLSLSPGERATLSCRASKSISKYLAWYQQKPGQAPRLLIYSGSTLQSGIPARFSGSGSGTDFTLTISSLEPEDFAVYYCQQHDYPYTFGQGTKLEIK
output: 0.019 nM
